Run Conditions: in water, ionic strength 0 to 0.1 mole/liter, 25° C.
Short version: pKa at least 4 is y, less is n.

Task item: Is reported pKa greater than or equal to 4 here: Nc1ccccc1C(=O)O
Reply: y

Task item: Is reported pKa greater than or equal to 4 here: O=C(O)c1ccccc1F
Reply: n

Task item: Is reported pKa greater than or equal to 4 here: CNc1ccccc1C(=O)O
Reply: y

Task item: Is reported pKa greater than or equal to 4 here: O=C(O)c1c(Cl)cccc1Cl
Reply: n

Task item: Is reported pKa greater than or equal to 4 here: O=C(O)c1ccc(Cl)c(Cl)c1
Reply: n

Task item: Is reported pKa greater than or equal to 4 here: N#Cc1cccc(C(=O)O)c1
Reply: n

Task item: Is reported pKa greater than or equal to 4 here: O=C(O)c1cccc(Cl)c1
Reply: n

----------
Run Conditions: water
Recorded Endpoint: pKa
I'd appreciate a reply containing only the number, no unit.

Task item: What value of pKa has been reported for the following compound? Cc1cccc(C(=O)O)c1 [m-methylbenzoic acid, reference compound]
Reply: 4.27

Task item: What value of pKa has been reported for the following compound? O=C(O)c1cccc(C(F)(F)F)c1
Reply: 3.77

Task item: What value of pKa has been reported for the following compound? O=C(O)c1ccccc1Br
Reply: 2.85

Task item: What value of pKa has been reported for the following compound? O=C(O)c1ccccc1-c1ccccc1
Reply: 3.46

Task item: What value of pKa has been reported for the following compound? CC(=O)c1ccccc1C(=O)O
Reply: 3.79

Task item: What value of pKa has been reported for the following compound? O=C(O)c1ccccc1Cl
Reply: 2.92

Task item: What value of pKa has been reported for the following compound? CC(=O)c1ccc(C(=O)O)cc1
Reply: 3.70

Task item: What value of pKa has been reported for the following compound? O=C(O)c1c(F)c(F)c(F)c(F)c1F [pentafluorobenzoic acid, reference compound]
Reply: 1.48

Task item: What value of pKa has been reported for the following compound? O=C(O)c1c(F)cccc1F
Reply: 2.31
